Tested on: Zymoseptoria tritici (SEPTTR-184)
assay comment: Efficacy of target gene fragments (MgCytB dsRNA tiles) on wheat plants, SEPTTR-184
Assay type: in vivo
experimental setup: 1DP (preventative); sum over 200, 50, 12.5, 3.125 ppm
Please respond with reported Sum of Disease Control SEPTTR-184 1DP for every item in the list.
Phrase the answer as number then unit, nothing more needed.

{"columns": ["molecule", "measured quantity", "value observed"],
 "data": [
  ["MgCytB-T4: 219 bp dsRNA of Zymoseptoria CytB region T4, location 1-219 (SEQ ID NO:7) (nucleic acid, listed as Zymoseptoria tritici, complementary strand of dsRNA) ATGAGGATTTGGAAGAGTCACCCTTTATTTAGTCTGGTTAATGGTTATCTTATCGATTCACCACAACCAAGTAATCTAAGCTATCTATGAAATTTCGGTTCATTACTGGGATTTTGTCTTGTAATACAAATCGTTACTGGTGTTACACTTGCTATGCATTATAACCCTAGCGTATCTGAAGCATTTAACTCAGTTGAACACATAATGAGAGATGTAAAC", "Sum of Disease Control SEPTTR-184 1DP", "292%"]
]}

Would you be so kind as to report Sum of Disease Control SEPTTR-184 1DP for each listed record?
1. MgCytB-T3: 116 bp dsRNA of Zymoseptoria CytB region 3, location 279-394 (SEQ ID NO:6) (nucleic acid, listed as Zymoseptoria tritici, long dsRNA, chemistry not given here, further chemistry not given here) TTACCTGCACGTGGGTAGAGGGTTATACTACGGGTCATACAAAGCCCCTAGAACATTAACATGAACAATCGGTACTATAATACTAGTTCTGATGATGGCAACCGCATTCTTAGGGT
2. MgCytB-T1: 267 bp dsRNA of Zymoseptoria CytB region 1, location 364-630 (SEQ ID NO:4) (nucleic acid, listed as Zymoseptoria tritici, complementary strand of dsRNA) GTTCTGATGATGGCAACCGCATTCTTAGGGTATGTATTACCTTATGGTCAAATGTCTTTATGAGGAGCAACAGTTATAACTAACTTATTGAGTGCAATACCTTGAGTTGGACAAGACATAGTTGAATTCGTATGAGGTGGATTTTCTGTTAACAATGCAACATTGAACAGATTCTTTGCTCTACATTTCGTTTTACCGTTTGTGTTAGCTGCATTAGTTTTAATGCATCTAATAGCTTTACACGATACAGCGGGTTCAGGAAATCCT
3. MgCytB-T2: 203 bp dsRNA of Zymoseptoria CytB region 2, location 603-805 (SEQ ID NO:5) (nucleic acid, listed as Zymoseptoria tritici, complementary strand of dsRNA) ACACGATACAGCGGGTTCAGGAAATCCTTTAGGTGTATCAGGTAACTACGATAGATTACCATTCGCCCCTTACTTTATATTCAAAGATTTAATAACAATATTTTTATTCATTATAGTGTTATCAATATTTATTTTCTTTATGCCTAACGTTTTAGGTGACAGCGAGAATTATGTTATGGCTAACCCTATGCAAACTCCACCTG
4. MgCytB-T5: 172 bp dsRNA of Zymoseptoria CytB region T5, location 173-344 (SEQ ID NO:8) (nucleic acid, listed as Zymoseptoria tritici, complementary strand of dsRNA) TATCTGAAGCATTTAACTCAGTTGAACACATAATGAGAGATGTAAACAATGGATGACTTATACGTTATCTTCACTCTAATACTGCTTCAGCTTTCTTCTTTTTAGTTTACCTGCACGTGGGTAGAGGGTTATACTACGGGTCATACAAAGCCCCTAGAACATTAACATGAAC

["271%", "263%", "285%", "284%"]
